test: Inhibition of NADH-ubiquinone oxidoreductase in bovine heart mitochondria after 5 mins by spectrophotometric analysis; parameters: species or system Bos taurus
Assay Metric: Ki (µM)

compound_smiles=CCCCCCCCCCc1nc(N(C)C)nc(C)c1O value_qualifier== observed_measurement=1.4
compound_smiles=Cc1nc(N(C)C)nc(CCCCCCCCCCO)c1O value_qualifier== observed_measurement=0.7
compound_smiles=COC1=C(OC)C(=O)C(CCCCCCCCCCO)=C(C)C1=O value_qualifier== observed_measurement=4
compound_smiles=CCCCCCCCCCCCCCCCc1nc(N(C)C)nc(C)c1O value_qualifier== observed_measurement=141
compound_smiles=CCCCCCCCCCC1=C(C)C(=O)C(OC)=C(OC)C1=O value_qualifier=> observed_measurement=200
